The values you see were collected from patent US20250268903A1.

- MEASURED_ON: human RXFP1 (Homo sapiens, UniProt Q9HBX9)
- Sequence (Q9HBX9 1-757): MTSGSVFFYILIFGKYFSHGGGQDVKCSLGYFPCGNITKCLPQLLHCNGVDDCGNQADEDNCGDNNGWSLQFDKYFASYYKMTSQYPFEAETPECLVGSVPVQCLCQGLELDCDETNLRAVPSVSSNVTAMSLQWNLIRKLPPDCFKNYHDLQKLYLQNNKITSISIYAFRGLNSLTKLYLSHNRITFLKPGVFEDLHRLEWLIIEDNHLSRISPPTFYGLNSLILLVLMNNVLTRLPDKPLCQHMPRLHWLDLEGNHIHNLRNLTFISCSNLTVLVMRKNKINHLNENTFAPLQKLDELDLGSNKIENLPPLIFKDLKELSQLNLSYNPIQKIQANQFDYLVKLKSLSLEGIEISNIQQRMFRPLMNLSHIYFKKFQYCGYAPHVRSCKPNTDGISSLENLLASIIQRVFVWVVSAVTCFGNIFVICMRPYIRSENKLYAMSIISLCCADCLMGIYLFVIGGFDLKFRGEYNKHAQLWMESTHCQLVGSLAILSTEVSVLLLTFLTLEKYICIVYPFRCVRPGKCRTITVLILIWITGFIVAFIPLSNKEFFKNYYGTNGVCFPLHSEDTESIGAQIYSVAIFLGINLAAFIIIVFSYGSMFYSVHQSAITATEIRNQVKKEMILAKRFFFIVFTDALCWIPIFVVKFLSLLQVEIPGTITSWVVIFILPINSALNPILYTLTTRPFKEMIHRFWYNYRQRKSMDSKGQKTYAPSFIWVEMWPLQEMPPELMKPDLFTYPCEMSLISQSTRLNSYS
- MEASUREMENT_NOTES: hRXFP1 HEK293 cAMP assay (HTRF)
- MEASUREMENT_PARAMETERS: HEK293 cells stably expressing human RXFP1, 30 min at room temperature
REPORTED_PROPERTY: EC50 (nM)

| COMPOUND | MEASURED_ON | MEASUREMENT_UNITS | NUMBER |
| --- | --- | --- | --- |
| COc1ccc(CCCOc2nc3ccccc3n2C)cc1C(=O)N[C@@H]1C2CCC(/C2=C/C(F)(F)F)[C@@H]1C(=O)Nc1ccc(F)c(C(F)(F)F)c1 (some centres unmarked) | human RXFP1 (Homo sapiens, UniProt Q9HBX9) | nM | 1640 |
| COc1ccc(C2CCCC(OC(=O)Nc3ccccc3)C2)cc1C(=O)N[C@@H]1C2CCC(/C2=C/C(F)(F)F)[C@@H]1C(=O)Nc1ccc(F)c(C(F)(F)F)c1 (single isomer, unassigned) [Example 43] | human RXFP1 (Homo sapiens, UniProt Q9HBX9) | nM | 157 |
| COc1ccc(C#CCCCOC(=O)NC2CCC2)cc1C(=O)N[C@@H]1C2CCC(/C2=C/C(F)(F)F)[C@@H]1C(=O)Nc1ccc(F)c(C(F)(F)F)c1 (some centres unmarked) | human RXFP1 (Homo sapiens, UniProt Q9HBX9) | nM | 303 |
| COc1ccc(C2CCCC(O)C2)cc1C(=O)N[C@@H]1C2CCC(/C2=C/C(F)(F)F)[C@@H]1C(=O)Nc1ccc(F)c(C(F)(F)F)c1 (single isomer, unassigned) [Example 36] | human RXFP1 (Homo sapiens, UniProt Q9HBX9) | nM | 442 |
| COc1ccc(CCCCCO)cc1C(=O)N[C@@H]1C2CCC(/C2=C/C(F)(F)F)[C@@H]1C(=O)Nc1ccc(F)c(C(F)(F)F)c1 (some centres unmarked) | human RXFP1 (Homo sapiens, UniProt Q9HBX9) | nM | 82 |
